- methodDescription: Staining of lysed whole blood, fluorescence by flow cytometry
- Type: cell-based, human
- reportedConditions: human, white blood cells; 8 uM, t=2 h
- Procedure: After characterizing the various xanthene dyes prepared in accordance with this invention, one of the dyes (VBDB) was used to stain cells. […] Referring to FIG. 2, VBDB, BCECF-AM and FDA were compared as vital dyes by staining lysed whole blood and examining the fluorescence by flow cytometry. […] The cells were analyzed immediately after staining (t=0), after one hour (t=1) and after two hours (t=2). The data in FIG. 2 also was used to quantitate the "live" cells and the "dead" cells. […]
recordedEndpoint: percentage of dead (leaky) cells at 2 h, 8 µM (%)
Report the figure in % without appending any unit label.

*Q* Form field: reported percentage of dead (leaky) cells at 2 h, 8 µM of CCCC(=O)Oc1ccc2c3c(ccc2c1)C1(OS(=O)(=O)c2ccccc21)c1ccc2cc(OC(=O)CCC)ccc2c1O3 [Compound 14, Vita Blue dibutyrate]
*A* 22

###

- methodDescription: Fluorescence emission maximum and quantum yield
- Assay type: physicochemical
- reportedConditions: pH 9.5
recordedEndpoint: EM Max (nm)
Report the figure in nm without appending any unit label.

*Q* Form field: reported EM Max of O=c1cc2oc3cc(O)c4ccccc4c3c(-c3ccccc3S(=O)(=O)O)c-2c2ccccc12
*A* 567

*Q* Form field: reported EM Max of O=c1ccc2c(ccc3c(-c4ccccc4S(=O)(=O)O)c4ccc5cc(O)ccc5c4oc32)c1
*A* 665

*Q* Form field: reported EM Max of O=C(O)c1ccccc1-c1c2ccc3c(Br)c(O)ccc3c2oc2c1ccc1c(Br)c(=O)ccc12
*A* 682

*Q* Form field: reported EM Max of CN(C)c1ccc2c(-c3ccccc3C(=O)O)c3ccc(=O)cc-3oc2c1
*A* 545

*Q* Form field: reported EM Max of O=c1ccc2c(-c3ccccc3S(=O)(=O)O)c3ccc(O)cc3oc-2c1
*A* 517

*Q* Form field: reported EM Max of O=C(O)c1ccccc1-c1c2c3ccccc3c(=O)cc-2oc2cc(O)c3ccccc3c12
*A* 565

*Q* Form field: reported EM Max of O=C(O)c1ccccc1-c1c2ccc3cc(O)ccc3c2oc2c1ccc1cc(=O)ccc12
*A* 660

*Q* Form field: reported EM Max of O=C(O)c1ccccc1-c1c2c3ccccc3c(=O)c(Br)c-2oc2c(Br)c(O)c3ccccc3c12
*A* 581

*Q* Form field: reported EM Max of O=C(O)c1ccccc1-c1c2ccc(=O)cc-2oc2cc(O)ccc12
*A* 516

###

- methodDescription: Staining of lysed whole blood, fluorescence by flow cytometry
- Assay type: cell-based, human
- reportedConditions: human, white blood cells; 0.8 uM, t=2 h
recordedEndpoint: percentage of dead (leaky) cells at 2 h, 0.8 µM (%)
Report the figure in % without appending any unit label.

*Q* Form field: reported percentage of dead (leaky) cells at 2 h, 0.8 µM of CCCC(=O)Oc1ccc2c3c(ccc2c1)C1(OS(=O)(=O)c2ccccc21)c1ccc2cc(OC(=O)CCC)ccc2c1O3 [Compound 14, Vita Blue dibutyrate]
*A* 20

###

- methodDescription: Staining of lysed whole blood, fluorescence by flow cytometry
- Assay type: cell-based, human
- reportedConditions: human, white blood cells; 0.8 uM, t=1 h
- Method: After characterizing the various xanthene dyes prepared in accordance with this invention, one of the dyes (VBDB) was used to stain cells. […] Referring to FIG. 2, VBDB, BCECF-AM and FDA were compared as vital dyes by staining lysed whole blood and examining the fluorescence by flow cytometry. […] The cells were analyzed immediately after staining (t=0), after one hour (t=1) and after two hours (t=2). The data in FIG. 2 also was used to quantitate the "live" cells and the "dead" cells. […]
recordedEndpoint: percentage of dead (leaky) cells at 1 h, 0.8 µM (%)
Report the figure in % without appending any unit label.

*Q* Form field: reported percentage of dead (leaky) cells at 1 h, 0.8 µM of CCCC(=O)Oc1ccc2c3c(ccc2c1)C1(OS(=O)(=O)c2ccccc21)c1ccc2cc(OC(=O)CCC)ccc2c1O3 [Compound 14, Vita Blue dibutyrate]
*A* 18
